Source: patent US20240092836A1

Recorded ELISA S/N(SA) values for a group of binders are listed next.
- testSystem: Recombinant Human CTLA4-Fc chimera (R&D systems) (human) (UniProt P16410)
- procedureText: ELISA, signal over SA
Output: the number by itself.

| binder | experimentalEndpoint | endpointResult |
| --- | --- | --- |
| GGCRHPFLPIVSWHFCAA (peptide, not shown: large carriers; small tags and cut ends) [C4m#19-5th2w-NNS6-70] | ELISA S/N(SA) | 5.1 |
| GGCLHPWLPIVSCHFCPR (peptide, not shown: large carriers; small tags and cut ends) [C4m#19-5th2w-NNS6-68] | ELISA S/N(SA) | 4.6 |
| GGCWHPFLPIFSAHFCMR (peptide, not shown: large carriers; small tags and cut ends) [C4m3127-4th-NNS6-89] | ELISA S/N(SA) | 6.6 |
| GGCRHPVLPIVSLHFCPG (peptide, not shown: large carriers; small tags and cut ends) [C4m3127-4th-NNS6-17] | ELISA S/N(SA) | 20.4 |

Consider the binder shown here: GGCSHPFLPILSVHFCPF (peptide, not shown: large carriers; small tags and cut ends) [C4m#19-5th4w-NN6-69-1] What is its recorded ELISA S/N(SA)?
24.9

Consider the binder shown here: GGCWHPWLPIVSVHFCGC (peptide, not shown: large carriers; small tags and cut ends) [C4m#19-5th4w-NN6-72] What is its recorded ELISA S/N(SA)?
4.6

Consider the binder shown here: GGCLHPFLPIRSVHFCPR (peptide, not shown: large carriers; small tags and cut ends) [C4m#19-5th4w-NN6-67] What is its recorded ELISA S/N(SA)?
45.4
